tested on: LoVo; test: Photocytotoxicity against human LoVo cells assessed as growth inhibition at 2.5 J/cm'2 irradiation for 30 mins followed by drug treated for 72 hrs by MTT assay; format: functional; conditions: light or radiation study
Cut-off 6 µM on GI50: below means 1 (yes), at or above means 0 (no).

smiles-string: COc1nc2c(cc1S(=O)(=O)c1ccccc1)CCc1c-2cnn1C
tested-on: LoVo
group: 0 (no)
--
smiles-string: Cn1c2c(cc(S(=O)(=O)c3ccccc3)c1=O)CCc1c-2cnn1-c1cccc(Cl)c1
tested-on: LoVo
group: 0 (no)
--
smiles-string: COc1ccc(-n2ncc3c2CCc2cc(S(=O)(=O)c4ccccc4)c(OC)nc2-3)cc1
tested-on: LoVo
group: 1 (yes)
--
smiles-string: O=c1c(S(=O)(=O)c2ccccc2)cc2c(n1Cc1ccccc1)-c1cnn(-c3ccc(Cl)cc3)c1CC2
tested-on: LoVo
group: 0 (no)
--
smiles-string: CCOC(=O)c1cc2c(nc1OC)-c1cnn(-c3ccc(OC)cc3)c1CC2
tested-on: LoVo
group: 1 (yes)
--
smiles-string: CCOC(=O)c1cc2c(nc1OC)-c1cnn(-c3ccc(Cl)cc3)c1CC2
tested-on: LoVo
group: 1 (yes)
--
smiles-string: CCOC(=O)c1cc2c(n(C)c1=O)-c1cnn(-c3ccc(Cl)cc3)c1CC2
tested-on: LoVo
group: 0 (no)
--
smiles-string: COc1nc2c(cc1S(=O)(=O)c1ccccc1)CCc1c-2cnn1-c1ccc(Cl)cc1
tested-on: LoVo
group: 1 (yes)
--
smiles-string: O=c1[nH]c2c(cc1S(=O)(=O)c1ccccc1)CCc1c-2cnn1-c1ccccc1
tested-on: LoVo
group: 0 (no)
--
smiles-string: COc1ccc(-n2ncc3c2CCc2cc(S(=O)(=O)c4ccccc4)c(OCc4ccccc4)nc2-3)cc1
tested-on: LoVo
group: 0 (no)

###

tested on: Jurkat; experiment: Photocytotoxicity against human Jurkat cells assessed as growth inhibition at 2.5 J/cm'2 irradiation for 30 mins followed by drug treated for 72 hrs by MTT assay; assay type: functional; conditions: light or radiation study
Attribute: GI50
outcome-measure: GI50 (µM)

smiles-string: O=c1[nH]c2c(cc1S(=O)(=O)c1ccccc1)CCc1c-2cnn1-c1ccccc1Cl
outcome-measure: GI50
lt-gt-eq: =
experimental-value: 3.95
//
smiles-string: Cn1c2c(cc(S(=O)(=O)c3ccccc3)c1=O)CCc1c-2cnn1-c1ccccc1Cl
outcome-measure: GI50
lt-gt-eq: =
experimental-value: 5.21
//
smiles-string: CCOC(=O)c1cc2c(n(C)c1=O)-c1cnn(-c3ccc(Cl)cc3)c1CC2
outcome-measure: GI50
lt-gt-eq: >
experimental-value: 20
//
smiles-string: CCOC(=O)c1cc2c(nc1OC)-c1cnn(-c3ccc(Cl)cc3)c1CC2
outcome-measure: GI50
lt-gt-eq: =
experimental-value: 1.81
//
smiles-string: O=c1ccc2ccc3occc3c2o1
outcome-measure: GI50
lt-gt-eq: =
experimental-value: 1
//
smiles-string: Cn1c2c(cc(S(=O)(=O)c3ccccc3)c1=O)CCc1c-2cnn1-c1cccc(Cl)c1
outcome-measure: GI50
lt-gt-eq: =
experimental-value: 2.81
//
smiles-string: Cn1c2c(cc(S(=O)(=O)c3ccccc3)c1=O)CCc1c-2cnn1Cc1ccccc1
outcome-measure: GI50
lt-gt-eq: =
experimental-value: 5.67
//
smiles-string: O=c1[nH]c2c(cc1S(=O)(=O)c1ccccc1)CCc1c-2cnn1-c1ccccc1
outcome-measure: GI50
lt-gt-eq: >
experimental-value: 20
//
smiles-string: Cn1c2c(cc(S(=O)(=O)c3ccccc3)c1=O)CCc1c-2cnn1-c1ccc(Cl)cc1
outcome-measure: GI50
lt-gt-eq: =
experimental-value: 3.01
//
smiles-string: COc1nc2c(cc1S(=O)(=O)c1ccccc1)CCc1c-2cnn1Cc1ccccc1
outcome-measure: GI50
lt-gt-eq: =
experimental-value: 1.4
